# assay explanation: gradient 5% acetonitrile 3 min, to 50% in 2 min, to 85% in 15 min, held 3 min, 100 µL/min
# conditions: column: Zorbax Extend-C18 2.1 x 50 mm; eluents: water / acetonitrile, 0.1% formic acid
Assign class by RP-LC retention time: not lower than 800 s means Fulfilled; lower than 800 s means Not fulfilled.

| compound | assigned label |
| --- | --- |
| COc1ccc(N2CC(c3nc(-c4ccccc4F)no3)CC2=O)cc1 (centres undefined) | Fulfilled |
| CCOCC(=O)N1CCCCCNC(=O)[C@@H]2CCCC[C@@H]21 | Not fulfilled |
| CCCn1cc(S(=O)(=O)Nc2cccc(Cl)c2)c2cccnc21 | Fulfilled |
| Cc1noc(C)c1CN1CCCC(C)(c2nc(-c3ccccc3)no2)C1 (centres undefined) | Not fulfilled |
| O=C(Cn1nc2c3sc(N4CCCCC4)nc3ncn2c1=O)Nc1ccc(F)cc1Cl | Fulfilled |

Lookup: Identify whether the reported RP-LC retention time of the following compound is 800 s or greater: COc1cccc(-c2nnc(SCC(=O)NCc3ccco3)n2-c2ccccc2)c1
Found: Not fulfilled

Lookup: Is RP-LC retention time at least 800 s? Consider COc1ccccc1COC(=O)C1=CN(Cc2ccccc2)S(=O)(=O)N=C1C
Found: Fulfilled

Lookup: hey, is RP-LC retention time for this one >= 800 s? CCN1CCn2cc(S(=O)(=O)N3CCN(c4ccccc4F)CC3)cc2C1=O
Found: Fulfilled

Lookup: State whether the measured RP-LC retention time reaches 800 s, counting equality as reaching it, for CCCn1nc(CNC(=O)c2ccc3c(c2)OCO3)c2ccccc21
Found: Fulfilled

---

Provide the recorded RP-LC retention time for the entries that follow.
# assay explanation: gradient 5% acetonitrile 3 min, to 50% in 2 min, to 85% in 15 min, held 3 min, 100 µL/min
# conditions: column: Zorbax Extend-C18 2.1 x 50 mm; eluents: water / acetonitrile, 0.1% formic acid
Numbers only, in s.

The cases that follow already have their RP-LC retention time on record.
| smiles text | reported |
| --- | --- |
| CCOc1ccc2ncc(C(=O)c3ccccc3)c(N3CCN(C)CC3)c2c1 | 527 |
| Cc1ccc(C)c2sc(N(C)CC(=O)NCCSc3nncn3C)nc12 | 719 |
| CCn1c(=O)c(=O)n(CC(=O)NCCN2CCCCC2)c2cccnc21 | 565 |

Give RP-LC retention time for all compounds that follow.
1. O=C(c1ccc(C(F)(F)F)cc1)N1CCc2nc(-c3ccc(F)cc3)ncc2C1
2. Cc1csc(-c2nnc(Nc3ccc(Oc4ncccc4-c4ccnc(N)n4)cc3)c3ccccc23)c1
3. O=C(NCC1CC1)c1sc2ncccc2c1-n1cccc1
4. O=C(NCCc1ccc(Cl)cc1)c1nnc(-c2ccc(S(=O)(=O)N3CCOCC3)cc2)o1

Found:
1: 1080; 2: 731; 3: 902; 4: 925

Record RP-LC retention time for all entries; do not skip any.
1. Fc1cc(F)cc(-c2noc3ncnc(N4CCN(c5ccccn5)CC4)c23)c1
2. O=C(NCCCc1ccccc1)c1nnc(-c2ccc(S(=O)(=O)N3CCCC3)cc2)o1

Found:
678
971

---

# assay explanation: gradient 5% acetonitrile 3 min, to 50% in 2 min, to 85% in 15 min, held 3 min, 100 µL/min
# conditions: column: Zorbax Extend-C18 2.1 x 50 mm; eluents: water / acetonitrile, 0.1% formic acid
reported endpoint: RP-LC retention time (s)
Numbers only, in s.

| compound | measurement units | reported |
| --- | --- | --- |
| O=C(C1=NNc2ccccc2S1(=O)=O)N1CCOCC1 | s | 618 |
| Cc1ccc(F)c(NC(=O)C(C)C2CCN(C(=O)Nc3ccc(Cl)cc3)CC2)c1 (stereo not given) | s | 968 |
| CCn1cc(-c2ccc(F)cc2)cc1C(=O)N1CCCCC1 | s | 1060 |
| CCC(=O)Nc1ccc2nc(N3CCN(CC(=O)Nc4c(C)cccc4C)CC3)cc(C(=O)O)c2c1 | s | 594 |
| CC1CCN(S(=O)(=O)c2cc(C(=O)N3CCN(c4cccc(Cl)c4)CC3)n(C)c2)CC1 | s | 1120 |
| CSc1ccc(CCNC(=O)Cn2nc(-n3cccc3)c3c(C)cc(C)nc32)cc1 | s | 1050 |
| CCOC(=O)c1cnc2nc(C)ccc2c1Nc1ccc(F)cc1Cl | s | 742 |
| CCn1c(C)cc(=O)c2cc(C(=O)Nc3nc(C)c(C)s3)ccc21 | s | 578 |
| Cc1noc(-c2ccc(OC3CN(C(=O)NC(C)C)C3)cc2)n1 | s | 730 |
| Cc1cc(C)c(S(=O)(=O)N2CC(c3nc(Cc4ccccc4)no3)C2)cc1C | s | 1190 |

Provide the reported RP-LC retention time of each entry below, same order.
1. COc1ccc(CNC(=O)c2cc3c(=O)n(C)c4ccccc4n3n2)c(OC)c1
2. COc1cccc(-n2cc(C(=O)O)c3ccccc3c2=O)c1
3. COc1cccc(-c2noc(CN3C(=O)COc4ccc(C)cc43)n2)c1OC

Found:
[784, 760, 981]

Values from the METLIN SMRT retention time set (Domingo-Almenara et al. 2019)
